All values here come from paper PMC3830801.

Parameter: pKa. Scope: all listed entries.
protocol description: pKa determination by RP-HPLC
Format: physicochemical
test conditions: from retention factor vs pH of mobile phase, recalculated for water medium
Reply with the value as a number alone.

**Query** Would you kindly share the measured pKa for CCCOC(=O)Nc1ccc(C(=O)OCC(O)CNCCOc2ccc(F)cc2)cc1.Cl (centres unmarked) [Compound 23c] ?
**Result** 8.16

New cases:
**Query** Entry under review: CCCOC(=O)Nc1ccc(C(=O)OCC(O)CNCCOc2c(OC)cccc2OC)cc1.Cl (centres unmarked) [Compound 21c] . Reported pKa?
**Result** 8.9

**Query** Which pKa value belongs to CCCCOC(=O)Nc1ccc(C(=O)OCC(O)CNCCOc2ccc(F)cc2)cc1.Cl (centres unmarked) [Compound 23d] ?
**Result** 8.08

**Query** Form field: reported pKa of CCOC(=O)Nc1ccc(C(=O)OCC(O)CNCCOc2ccccc2F)cc1.Cl (centres unmarked) [Compound 22b]
**Result** 7.99

**Query** # input compound: CCCCOC(=O)Nc1ccc(C(=O)OCC(O)CNCCOc2ccccc2F)cc1.Cl (centres unmarked) [Compound 22d] ; wanted: its pKa
**Result** 7.96

**Query** Reported pKa, compound CCOC(=O)Nc1ccc(C(=O)OCC(O)CNCCOc2c(OC)cccc2OC)cc1.Cl (centres unmarked) [Compound 21b] : ____
**Result** 8.88

**Query** Sample CCCOC(=O)Nc1ccc(C(=O)OCC(O)CNCCOc2ccccc2OC)cc1.Cl (centres unmarked) [Compound 19c] — what was its pKa?
**Result** 8.67

**Query** Fill blank: measured pKa of the compound CCCCOC(=O)Nc1ccc(C(=O)OCC(O)CNCCOc2c(OC)cccc2OC)cc1.Cl (centres unmarked) [Compound 21d] is ____.
**Result** 8.58
